Test system: Calf thymus DNA
assay.remarks: Ratio of binding constant of S-enantiomer and R-enantiomer towards sonicated calf thymus DNA
Type: nucleic-acid assay
assay.conditions: Bos taurus
The label yes (1) is reserved for Ratio strictly under 2; no (0) covers values equal to or above it.

CC(C)C(N)COc1nc(-c2cccs2)cc(-c2cccs2)n1 (configuration not stated)	no (0)
CCC(N)COc1nc(-c2cccs2)cc(-c2cccs2)n1 (configuration not stated)	yes (1)
NCCOc1nc(-c2cccs2)cc(-c2cccs2)n1	no (0)
Cc1cnc(OCC2CCCN2)nc1-c1cccs1 (configuration not stated)	yes (1)
Cc1c(-c2cccs2)nc(OCC(C)N)nc1-c1cccs1 (configuration not stated)	yes (1)

Enquiry: Report whether reported Ratio is lower than 2 (strictly) for CCC(N)COc1nc(-c2cccs2)c(C)c(-c2cccs2)n1 (configuration not stated)
Return: yes (1)

Enquiry: Report whether reported Ratio is lower than 2 (strictly) for Cc1cnc(OCC(N)C(C)C)nc1-c1cccs1 (configuration not stated)
Return: yes (1)

Enquiry: Report whether reported Ratio is lower than 2 (strictly) for Cc1c(-c2cccs2)nc(OCC(N)C(C)C)nc1-c1cccs1 (configuration not stated)
Return: yes (1)

Enquiry: Report whether reported Ratio is lower than 2 (strictly) for Cc1c(-c2cccs2)nc(OCC2CCCN2)nc1-c1cccs1 (configuration not stated)
Return: yes (1)

Enquiry: Report whether reported Ratio is lower than 2 (strictly) for CC(N)COc1nc(-c2cccs2)cc(-c2cccs2)n1 (configuration not stated)
Return: yes (1)

Enquiry: Report whether reported Ratio is lower than 2 (strictly) for c1csc(-c2cc(-c3cccs3)nc(OCC3CCCN3)n2)c1 (configuration not stated)
Return: no (0)

Enquiry: Report whether reported Ratio is lower than 2 (strictly) for Cc1c(-c2cccs2)nc(OCCN)nc1-c1cccs1
Return: no (0)
